B1: Hairpin Ribozyme (parent)
chain: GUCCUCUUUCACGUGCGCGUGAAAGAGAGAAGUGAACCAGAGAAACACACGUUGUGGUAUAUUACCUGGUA

Variants of: B1
protocolText: self-cleavage, relative activity (ratio to wild type); higher = more cleavage; co-transcriptional

{"recordSequence": "GUCCUCUUUGACGUGCGCGUGAAAGAGAGAAGUGAACCAGAGAAACACACGCUGUGGUAUAUUACCUGGUA [C10G U52C]", "self-cleavage": 0.536}
{"recordSequence": "GUCCUCUUUCAAGUGCGCGUGAAAGAGAGAAGUGAACCAGAGAAACACACGUUGUGGUAUAGUACCUGGUA [C12A U62G]", "self-cleavage": 0.143}
{"recordSequence": "GUCCUCUUUCACGUGCGCGUGAAAGAGAGAACUGAACCAGAGGAACACACGUUGUGGUAUAUUACCUGGUA [G32C A43G]", "self-cleavage": 0.0421}
{"recordSequence": "GUCCUCUUUCACGUGCGCGUGAAAGAGAGAAGUGAACCAGAGAAACACCAGUUGUGGUAUAUUACCUGGUA [A49C C50A]", "self-cleavage": 0.139}
{"recordSequence": "GUCCUCUUUCACGUGCGCGGGAAAGAGAGAAGUGACCCAGAGAAACACACGUUGUGGUAUAUUACCUGGUA [U20G A36C]", "self-cleavage": 0.771}
{"recordSequence": "GUCCUCUUUCACGUGCGCGUGAAAGAAAGAAGUGAACCAGAGAAACACACGUUGUGGUAUAUUACCAGGUA [G27A U67A]", "self-cleavage": 0.0995}
{"recordSequence": "GUCCUCUUUCACGUGCGGGUGAAAGAGAGAAGUGAACCAGAGAAACACACGUUGUGGGAUAUUACCUGGUA [C18G U58G]", "self-cleavage": 0.89}
{"recordSequence": "GUCCUCUUUCACGUGCGCGUGAAAGAAAGAAGUGAACCAGAGAAACACACGUUGUGGUAUAUUACCUGGUC [G27A A71C]", "self-cleavage": 0.95}
{"recordSequence": "GUCCUCUUUCACGUGCGCGUGAAAGAGAGGAGUGAAGCAGAGAAACACACGUUGUGGUAUAUUACCUGGUA [A30G C37G]", "self-cleavage": 0.0733}
{"recordSequence": "GUCCUCUUUCAUGUGCUCGUGAAAGAGAGAAGUGAACCAGAGAAACACACGUUGUGGUAUAUUACCUGGUA [C12U G17U]", "self-cleavage": 0.69}
{"recordSequence": "GACCUCUUUCACGUGCGCGUGAAAGAGAGAAGUGAACCAGAGAAUCACACGUUGUGGUAUAUUACCUGGUA [U2A A45U]", "self-cleavage": 0.0686}
{"recordSequence": "GUCCUCUUUCACGUGCGCGUGAAAGAGAGGAGUGAACGAGAGAAACACACGUUGUGGUAUAUUACCUGGUA [A30G C38G]", "self-cleavage": 0.149}
{"recordSequence": "GUCCUCUUUCACGUGCGAGUGAAAGAGAGAAGUGAACCAGAGAAACACACGUUGUGGUAUAUUACCCGGUA [C18A U67C]", "self-cleavage": 0.274}
{"recordSequence": "GUCCUCUUUCACGUGCGCGUGAAAGAGAGAAGUGAACCAGAGAGACACACGUUGUGGUAGAUUACCUGGUA [A44G U60G]", "self-cleavage": 0.0699}
{"recordSequence": "GUCCGCUUUCACGUGCGCGUGAAAGAGAGAAGUGAACCAAAGAAACACACGUUGUGGUAUAUUACCUGGUA [U5G G40A]", "self-cleavage": 0.0651}
{"recordSequence": "GUCCUCUUUCACGUGCGCGUAAAAGCGAGAAGUGAACCAGAGAAACACACGUUGUGGUAUAUUACCUGGUA [G21A A26C]", "self-cleavage": 0.0544}
{"recordSequence": "GUCCUCUUUCACGUGUGCGUGAAAGAGAGAAGUUAACCAGAGAAACACACGUUGUGGUAUAUUACCUGGUA [C16U G34U]", "self-cleavage": 0.885}
{"recordSequence": "GUCCUCUUUCACGUGCGCGUGAAAGAGAGAAGAGAACCAGAGAAACACACGUUGUGGUAUAGUACCUGGUA [U33A U62G]", "self-cleavage": 0.174}
{"recordSequence": "GUCCUCUUUCACGUGCGCGUGAAAGAGAGAAGUGGACCAGAGAAACACACGUUGUGGUAUAUUACCUAGUA [A35G G68A]", "self-cleavage": 0.309}
{"recordSequence": "GUCCUCUUUCACGUGCGCGUGAAAGAGGGAAGUGAACCAGAGAAACACACGUUGUGGUAUAUUACCUGUUA [A28G G69U]", "self-cleavage": 0.331}
{"recordSequence": "GUCCUCUUUCACGUGCGCGUGAAAGACAGAAGUGAACCAGAGAAACACACGUUGGGGUAUAUUACCUGGUA [G27C U55G]", "self-cleavage": 0.113}
{"recordSequence": "GUCCUCUUUCACGUGCGCGUGAAAGAGAGCAGUGAACCUGAGAAACACACGUUGUGGUAUAUUACCUGGUA [A30C A39U]", "self-cleavage": 0.0707}
{"recordSequence": "GUCCUCUUUCACGUGCGCGUGACGGAGAGAAGUGAACCAGAGAAACACACGUUGUGGUAUAUUACCUGGUA [A23C A24G]", "self-cleavage": 0.85}
{"recordSequence": "GUCCUCUUUCACGUGCGCGUGAAAGAGAGAAGUGAACCGGAGAAACACACGUUGUGGUAUAGUACCUGGUA [A39G U62G]", "self-cleavage": 0.074}
{"recordSequence": "GUCCUCUUUCACGUGCGCGUGAAAGAGAGAGUUGAACCAGAGAAACACACGUUGUGGUAUAUUACCUGGUA [A31G G32U]", "self-cleavage": 0.121}
{"recordSequence": "GUCCUCUUUCACGUGCGCGUGAAAGAGAGAAGUGAUCCAGAGAAACAGACGUUGUGGUAUAUUACCUGGUA [A36U C48G]", "self-cleavage": 0.182}
{"recordSequence": "GUCCUCUUUCACGUGCGCCUGAAAGAGAGGAGUGAACCAGAGAAACACACGUUGUGGUAUAUUACCUGGUA [G19C A30G]", "self-cleavage": 0.187}
{"recordSequence": "GUCCCCUUUCACUUGCGCGUGAAAGAGAGAAGUGAACCAGAGAAACACACGUUGUGGUAUAUUACCUGGUA [U5C G13U]", "self-cleavage": 0.579}
{"recordSequence": "GUCCUCUUUCACGUGCGCGUGAAAGAGAGACGUUAACCAGAGAAACACACGUUGUGGUAUAUUACCUGGUA [A31C G34U]", "self-cleavage": 0.0576}
{"recordSequence": "GUCCUCUUUCACGUGCGCGUGAAAGAGAGAAGUGAAUCAGGGAAACACACGUUGUGGUAUAUUACCUGGUA [C37U A41G]", "self-cleavage": 0.994}
{"recordSequence": "GUCCUCUUUCACGUGCGCGUGAAAGAGAGAAGUGAACCGGAGAAACACACGUUGUGGUAUGUUACCUGGUA [A39G A61G]", "self-cleavage": 0.123}
{"recordSequence": "GUCCUCUUUCACGUGCGCGUGAAAGAGAGAAGUGAACCAGAGAAACACACGUUGUGGAAUAUUACCAGGUA [U58A U67A]", "self-cleavage": 0.273}
{"recordSequence": "GUCCUCUGUCACGUGUGCGUGAAAGAGAGAAGUGAACCAGAGAAACACACGUUGUGGUAUAUUACCUGGUA [U8G C16U]", "self-cleavage": 0.916}
{"recordSequence": "GUCCUCUUUCACGUGCGCGUGAAAGAGAGAAGUGAGCCAGAGAAACACACGUUGUGGUAUAGUACCUGGUA [A36G U62G]", "self-cleavage": 0.221}
{"recordSequence": "GUCCUCUUUCACGUGCGCGUGACAGAGGGAAGUGAACCAGAGAAACACACGUUGUGGUAUAUUACCUGGUA [A23C A28G]", "self-cleavage": 0.977}
{"recordSequence": "GUCCUCUUUCACGUGCGCGUGAAAGAGAGAAGUGAACCAGAGAAACACAUAUUGUGGUAUAUUACCUGGUA [C50U G51A]", "self-cleavage": 0.322}
{"recordSequence": "GUCCUCUUCCACGUGCGCGUGAAAGCGAGAAGUGAACCAGAGAAACACACGUUGUGGUAUAUUACCUGGUA [U9C A26C]", "self-cleavage": 0.426}
{"recordSequence": "GUCCUCUUUCACGUGCGCGUGAAAGAGAGAAGUUAACCAGAGAAACACACGUUGUGGUAUAUUACCUCGUA [G34U G68C]", "self-cleavage": 0.686}
{"recordSequence": "GUCCUCUUUCACGUGCGCGUGAAAGAGAGAAGUGAACCAGAGAAAAGCACGUUGUGGUAUAUUACCUGGUA [C46A A47G]", "self-cleavage": 0.133}
{"recordSequence": "GUCCUCUUUCACGUGCGCGUGAAAGAGAGAAGUGAAUCAGAGAAACACACGUUGUGGUAUAUUACCUGGUG [C37U A71G]", "self-cleavage": 0.779}
{"recordSequence": "GUCCUGUUUCACGUGCGCGUGAAAGAGAGAACUGAACCAGAGAAACACACGUUGUGGUAUAUUACCUGGUA [C6G G32C]", "self-cleavage": 0.0741}
{"recordSequence": "GUCCUCUUUCACGUGCGCGUGAAACAGAGAAGUGAACCAGAGAAACACACGUUGUGGUAUAAUACCUGGUA [G25C U62A]", "self-cleavage": 0.188}
{"recordSequence": "GUCCUCUUUCACGUGCGCGUGAAAGCGAGAAGUGAACCAGAGAAACACACGUUGUGGUAUAAUACCUGGUA [A26C U62A]", "self-cleavage": 0.269}
{"recordSequence": "GUCCUCUUUCACGUGCGUGUGAAAGAGAGAAGUGAGCCAGAGAAACACACGUUGUGGUAUAUUACCUGGUA [C18U A36G]", "self-cleavage": 1.15}
{"recordSequence": "GUCCUCUUUCACGUGCGCGUGAAAGAGAGCAGUGAACCAGAGAAACACACGUUGUGGUAUAUUACCUGGUU [A30C A71U]", "self-cleavage": 0.104}
{"recordSequence": "GUCCUCUUUCACGUGCGCGUGAAAGAGAGAGGUGCACCAGAGAAACACACGUUGUGGUAUAUUACCUGGUA [A31G A35C]", "self-cleavage": 0.6}
